- TESTED_SYSTEM: huFXII-his (human) (UniProt P00748)
- Sequence (P00748 20-615, form in doubt): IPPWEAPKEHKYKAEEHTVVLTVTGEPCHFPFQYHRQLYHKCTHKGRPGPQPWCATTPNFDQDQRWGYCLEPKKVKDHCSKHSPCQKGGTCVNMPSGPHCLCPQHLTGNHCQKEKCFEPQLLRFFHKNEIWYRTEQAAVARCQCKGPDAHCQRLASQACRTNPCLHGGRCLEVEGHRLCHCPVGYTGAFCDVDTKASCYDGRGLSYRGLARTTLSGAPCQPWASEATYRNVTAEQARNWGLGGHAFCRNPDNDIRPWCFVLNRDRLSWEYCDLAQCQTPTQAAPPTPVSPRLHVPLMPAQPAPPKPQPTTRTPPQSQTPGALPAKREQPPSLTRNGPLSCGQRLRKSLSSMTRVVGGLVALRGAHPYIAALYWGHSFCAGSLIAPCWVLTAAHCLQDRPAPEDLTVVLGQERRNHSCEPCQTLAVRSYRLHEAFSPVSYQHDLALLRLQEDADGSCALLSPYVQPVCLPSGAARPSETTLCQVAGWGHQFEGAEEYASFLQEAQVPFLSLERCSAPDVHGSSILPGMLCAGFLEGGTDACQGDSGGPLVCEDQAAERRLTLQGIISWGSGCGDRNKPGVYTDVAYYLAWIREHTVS
- TEST_NAME: cell-based or functional assay
# IC50 of inhibition of cleavage of chemical substrate S2302 by FXIIa (OD405) annotations
Numeric only. Scale: µg/mL

{"BINDER": "FX-Y17-Y8 (antibody, V domains shown) VH: EVQLLESGGGLVQPGGSLRLSCAGSGFSFGSQTMSWVRQAPGKGLEWVSSISVISRRTYYADSVKGRFTISRDNSKNTLYLQMNSLRAEDTAVYYCTKSHAFDVWGQGTMVTVSS VL: EIVLTQSPATLSVSPGERATLSCRASQSVWSNLAWYQQKPGQAPRLLIYGASTRATGIPARFSGSGSGTEFTLTISSLQSEDFAVYYCQQYHKWPLSFGGGTKVEIK", "TEST_VALUE": 0.0196}

[Q] Give its IC50 of inhibition of cleavage of chemical substrate S2302 by FXIIa (OD405) value. Item: FX-Y17-Y31 (antibody, V domains shown) VH: EVQLLESGGGLVQPGGSLRLSCAGSGFSFGSQTMSWVRQAPGKGLEWVSSISVISGRNYYADSVKGRFTISRDNSKNTLYLQMNSLRAEDTAVYYCAKSHAFDVWGQGTMVTVSS VL: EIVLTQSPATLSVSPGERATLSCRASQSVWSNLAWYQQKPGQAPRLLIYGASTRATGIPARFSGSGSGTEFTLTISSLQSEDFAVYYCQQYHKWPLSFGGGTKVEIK
[A] 0.0156

[Q] Another binder: FX-Y17-Y30 (antibody, V domains shown) VH: EVQLLESGGGLVQPGGSLRLSCAGSGFSFGSQTMSWVRQAPGKGLEWVSSISVISGRTYYADSVKGRFTISRDNSKNTLYLQMNSLRAEDTAVYYCAKSHAFDVWGQGTMVTVSS VL: EIVLTQSPATLSVSPGERATLSCRASQSVFSNLAWYQQKPGQAPRLLIYGASTRATGIPARFSGSGSGTEFTLTISSLQSEDFAVYYCQQYHWWPLSFGGGTKVEIK
[A] 0.0127
